# ASSAY EXPLANATION: TLR3 IRF3 reporter activation blockers – cell-based, poly I:C stimulus, luciferase, 10K MLSCN set, primary screen (AID 602277)
# MEASUREMENT CONTEXT: HEK293-TLR3 RL24 IRF3 luciferase reporter, at 10 µM, hits give high values
Active and inactive are the calls of the source.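 How the source made its calls: active means inhibition of the reporter signal at or above 50%; inactive means inhibition below 50%.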
inhibition listing for selected molecules.

Answered examples (4):
CCCOc1ccc2nc(NC(=O)OC)[nH]c2c1    74.2% (active)
Cc1ccc(C(=O)NC2CC3CCCC(C2)N3C(=O)NC2CCCCC2)cc1 (stereo not given)    9.12% (inactive)
CC(=O)OC(C(=O)NCc1ccco1)c1cccnc1 (stereo not given)    15.9% (inactive)
Cn1c(CCCNC(=O)c2ccccc2)nc2ccccc21    1.35% (inactive)

Please find the next molecule below.
Retrieve inhibition measured for `CN(c1cccc(NS(=O)(=O)c2cccs2)c1)S(C)(=O)=O` and print it. 15.4% (inactive)
